# test: Apparent permeability across basolateral to apical side in MDCKII-MDR1 cells at 10 uM incubated for 30 mins by LC-MS/MS analysis
# Type: ADME, cell-based, Canis lupus familiaris
# experimental_setup: dog, MDCK-MDR1
measured_parameter: Papp B→A at 0.5 h, 10 µM (×10⁻⁶ cm/s)
Write the value in ×10⁻⁶ cm/s as a bare number.

Ask | Give its Papp B→A at 0.5 h, 10 µM value. Item: `NC(=O)[C@@H]1C[C@H](F)CN1Cc1ccc2oc(-c3ccc(F)cc3)cc2c1`
Reply | 2.97

* * *

Measured concentration at 1 h accompanies every entry in the list below.
# test: Drug concentration in Sprague-Dawley rat plasma at 5 mg/kg, ip measured after 60 mins by LC-MS/MS analysis
# Assay type: ADME, organism-based
Write the value in ng/mL as a bare number.

molecule: NC(=O)[C@@H]1C[C@H](F)CN1Cc1ccc2oc(-c3ccc(F)cc3)cc2c1
output_unit: ng/mL
recorded_measurement: 540

Please look at the following molecule next.
Ask | Give its concentration at 1 h value. Item: C[C@H](NCc1ccc(OCc2cccc(F)c2)cc1)C(N)=O [SAFINAMIDE]
Reply | 353

* * *

Measured half-life accompanies every entry in the list below.
# test: Elimination half life in fasted ICR mouse at 5 mg/kg, IG measured for 24 hrs
# Type: ADME, organism-based
# experimental_setup: in vivo, po, read-out: beta t1/2 (converted)
Write the value in min as a bare number.

compound: NC(=O)[C@@H]1C[C@H](F)CN1Cc1ccc(OCc2cccc(F)c2)cc1
measured_parameter: half-life
recorded_measurement: 46.8
//
compound: C[C@H](NCc1ccc(OCc2cccc(F)c2)cc1)C(N)=O [SAFINAMIDE]
measured_parameter: half-life
recorded_measurement: 167

Ask | Give its half-life value. Item: `NC(=O)[C@@H]1C[C@H](F)CN1Cc1ccc2oc(-c3ccc(F)cc3)cc2c1`
Reply | 228

* * *

# assayed_system: UniProt:P21397
# Sequence (P21397 whole entry): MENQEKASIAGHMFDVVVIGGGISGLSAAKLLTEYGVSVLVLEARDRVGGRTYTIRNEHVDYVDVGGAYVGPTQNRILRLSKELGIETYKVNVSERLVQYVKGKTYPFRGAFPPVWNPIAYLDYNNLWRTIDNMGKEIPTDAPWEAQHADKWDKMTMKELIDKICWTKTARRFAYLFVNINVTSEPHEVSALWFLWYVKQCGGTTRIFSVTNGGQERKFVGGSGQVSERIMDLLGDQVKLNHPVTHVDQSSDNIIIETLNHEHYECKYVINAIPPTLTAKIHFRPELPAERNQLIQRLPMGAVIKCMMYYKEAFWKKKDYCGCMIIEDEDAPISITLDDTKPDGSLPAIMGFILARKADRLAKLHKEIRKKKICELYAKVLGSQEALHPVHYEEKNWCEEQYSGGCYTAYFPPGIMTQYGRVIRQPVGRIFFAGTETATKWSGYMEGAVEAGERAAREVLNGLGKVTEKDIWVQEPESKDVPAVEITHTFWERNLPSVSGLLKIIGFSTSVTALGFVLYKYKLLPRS
# test: Inhibition of recombinant human MAO-A expressed in Sf9 cells using […] as substrate preincubated for 15 mins followed by substrate addition and measured after 60 mins by luciferin based luminescence analysis
measured_parameter: pIC50
pIC50 here is simply -log10 of the concentration when that concentration is written in mol/L.

given_smiles: COc1cccc(-c2cc3cc(CN[C@@H](C)C(N)=O)ccc3o2)c1
pIC50: 5.23
//
given_smiles: C[C@H](NCc1ccc2oc(-c3ccc(F)cc3)cc2c1)C(N)=O
pIC50: 5.45

Ask | Give its pIC50 value. Item: `C[C@H](NCc1ccc2oc(-c3cccc(F)c3)cc2c1)C(N)=O`
Reply | 5.31

Ask | Give its pIC50 value. Item: `NC(=O)[C@@H]1C[C@H](F)CN1Cc1ccc2oc(-c3cccc(F)c3)cc2c1`
Reply | 5.31

Ask | Give its pIC50 value. Item: `C[C@H](NCc1ccc2oc(-c3ccccc3F)cc2c1)C(N)=O`
Reply | 5.21

Ask | Give its pIC50 value. Item: `NC(=O)[C@@H]1CCN1Cc1ccc2oc(-c3cccc(F)c3)cc2c1`
Reply | 5.31

* * *

Measured bioavailability accompanies every entry in the list below.
# test: Bioavailability in fasted ICR mouse at 5 mg/kg, IG measured for 24 hrs
# Assay type: ADME, organism-based
# experimental_setup: in vivo, po
Write the value in % as a bare number.

Solved cases (2 shown):
compound: C[C@H](NCc1ccc(OCc2cccc(F)c2)cc1)C(N)=O [SAFINAMIDE]
measured_parameter: bioavailability
recorded_measurement: 129

compound: NC(=O)[C@@H]1C[C@H](F)CN1Cc1ccc(OCc2cccc(F)c2)cc1
measured_parameter: bioavailability
recorded_measurement: 77.4

Please look at the following compound next.
Ask | Give its bioavailability value. Item: `NC(=O)[C@@H]1C[C@H](F)CN1Cc1ccc2oc(-c3ccc(F)cc3)cc2c1`
Reply | 105

* * *

# test: Metabolic stability in mouse liver microsomes assessed as half life at 1 uM incubated for 60 mins in presence of NADPH by LC-MS/MS analysis
# Format: ADME, Microsome
Measured half-life at 1 µM accompanies every entry in the list below.
Write the value in h as a bare number.

molecule: NC(=O)[C@@H]1C[C@H](F)CN1Cc1ccc2oc(-c3ccc(F)cc3)cc2c1
output_unit: h
recorded_measurement: 2.82

Ask | Give its half-life at 1 µM value. Item: C[C@H](NCc1ccc(OCc2cccc(F)c2)cc1)C(N)=O [SAFINAMIDE]
Reply | 1.1

* * *

Measured Cmax accompanies every entry in the list below.
# test: Cmax in fasted ICR mouse at 2 mg/kg, iv measured for 24 hrs
# Assay type: ADME, organism-based
# Parameters: time 24 hrs, dose 2 mg/kg, route iv
# experimental_setup: in vivo
Number first, unit second.

Ask | Give its Cmax value. Item: `NC(=O)[C@@H]1C[C@H](F)CN1Cc1ccc(OCc2cccc(F)c2)cc1`
Reply | 613 ng/mL

Ask | Give its Cmax value. Item: `NC(=O)[C@@H]1C[C@H](F)CN1Cc1ccc2oc(-c3ccc(F)cc3)cc2c1`
Reply | 900 ng/mL

Ask | Give its Cmax value. Item: C[C@H](NCc1ccc(OCc2cccc(F)c2)cc1)C(N)=O [SAFINAMIDE]
Reply | 429 ng/mL

* * *

# test: Elimination half life in fasted ICR mouse at 2 mg/kg, iv measured for 24 hrs
# Type: ADME, organism-based
# experimental_setup: in vivo, read-out: beta t1/2 (converted)
Measured half-life accompanies every entry in the list below.
Write the value in h as a bare number.

Solved cases (2 shown):
compound: NC(=O)[C@@H]1C[C@H](F)CN1Cc1ccc2oc(-c3ccc(F)cc3)cc2c1
measured_parameter: half-life
output_unit: h
recorded_measurement: 3.37
//
compound: C[C@H](NCc1ccc(OCc2cccc(F)c2)cc1)C(N)=O [SAFINAMIDE]
measured_parameter: half-life
output_unit: h
recorded_measurement: 1.59

Please look at the following compound next.
Ask | Give its half-life value. Item: `NC(=O)[C@@H]1C[C@H](F)CN1Cc1ccc(OCc2cccc(F)c2)cc1`
Reply | 0.55

* * *

# test: Volume of distribution at steady state in fasted ICR mouse at 2 mg/kg, iv measured for 24 hrs
# Assay type: ADME, organism-based
# experimental_setup: in vivo, read-out: Vdss
Measured Vd accompanies every entry in the list below.
Write the value in L/kg as a bare number.

compound: NC(=O)[C@@H]1C[C@H](F)CN1Cc1ccc(OCc2cccc(F)c2)cc1
output_unit: L/kg
Vd: 2.6

Ask | Give its Vd value. Item: C[C@H](NCc1ccc(OCc2cccc(F)c2)cc1)C(N)=O [SAFINAMIDE]
Reply | 4.53

Ask | Give its Vd value. Item: `NC(=O)[C@@H]1C[C@H](F)CN1Cc1ccc2oc(-c3ccc(F)cc3)cc2c1`
Reply | 2.72

* * *

# test: Clearance in fasted Sprague-Dawley rat at 1 mg/kg, iv measured for 24 hrs
# Assay type: ADME, organism-based
# experimental_setup: in vivo
Measured clearance accompanies every entry in the list below.
Write the value in mL/min/kg as a bare number.

Solved cases (5 shown):
compound: NC(=O)[C@@H]1CCN1Cc1ccc2oc(-c3cccc(F)c3)cc2c1
clearance / mL/min/kg: 87.9
--
compound: C[C@H](NCc1ccc(OCc2cccc(F)c2)cc1)C(N)=O [SAFINAMIDE]
clearance / mL/min/kg: 70.6
--
compound: NC(=O)[C@@H]1C[C@H](F)CN1Cc1ccc2oc(-c3ccc(F)cc3)cc2c1
clearance / mL/min/kg: 54.2
--
compound: NC(=O)[C@@H]1CCN1Cc1ccc2oc(-c3ccc(F)cc3)cc2c1
clearance / mL/min/kg: 102
--
compound: NC(=O)[C@@H]1CCN1Cc1ccc2oc(-c3ccccc3F)cc2c1
clearance / mL/min/kg: 106

Ask | Give its clearance value. Item: `NC(=O)[C@@H]1C[C@H](F)CN1Cc1ccc2oc(-c3cccc(F)c3)cc2c1`
Reply | 66.4

* * *

# test: AUC (0 to t) in fasted Sprague-Dawley rat at 5 mg/kg, IG measured for 24 hrs
# Type: ADME, organism-based
# Set-up: dose 5 mg/kg, time 24 hrs, route ig
# experimental_setup: in vivo, po
measured_parameter: AUC(0-t) at 24 h (ng·h/mL)
Write the value in ng·h/mL as a bare number.

Solved cases (5 shown):
compound: C[C@H](NCc1ccc(OCc2cccc(F)c2)cc1)C(N)=O [SAFINAMIDE]
AUC(0-t) at 24 h, ng·h/mL: 536
--
compound: NC(=O)[C@@H]1C[C@H](F)CN1Cc1ccc2oc(-c3cccc(F)c3)cc2c1
AUC(0-t) at 24 h, ng·h/mL: 1500
--
compound: NC(=O)[C@@H]1CCN1Cc1ccc2oc(-c3ccccc3F)cc2c1
AUC(0-t) at 24 h, ng·h/mL: 672
--
compound: NC(=O)[C@@H]1C[C@H](F)CN1Cc1ccc2oc(-c3ccc(F)cc3)cc2c1
AUC(0-t) at 24 h, ng·h/mL: 2280
--
compound: NC(=O)[C@@H]1CCN1Cc1ccc2oc(-c3cccc(F)c3)cc2c1
AUC(0-t) at 24 h, ng·h/mL: 527

Ask | Give its AUC(0-t) at 24 h value. Item: `NC(=O)[C@@H]1CCN1Cc1ccc2oc(-c3ccc(F)cc3)cc2c1`
Reply | 623
